These entries and their values trace back to ChEMBL document CHEMBL4425173.

Tested on: MCF7
Assay: Cytotoxicity against human MCF7 cells assessed as reduction in cell growth inhibition after 96 hrs by MTT assay
Type: functional
Details: MCF7, 96 h
Criterion: GI50 strictly under 4 µM. Met: True. Not met: False.

Problem: Is the reported GI50 for O=C(NCCSSCCNC(=O)/C(Cc1ccc(Cl)cc1Cl)=N/O)/C(Cc1ccc(Cl)cc1Cl)=N/O strictly below 4 µM?
Solution: False

Problem: Please let me know if CO/N=C(\Cc1ccc(C)cc1)C(=O)NCCSSCCNC(=O)/C(Cc1ccc(C)cc1)=N/OC shows GI50 below 4 µM.
Solution: False

Problem: Lab note: GI50 threshold 4 µM. Does this molecule come in strictly under it? CO/N=C(\Cc1ccc(OC)cc1)C(=O)NCCSSCCNC(=O)/C(Cc1ccc(OC)cc1)=N/OC
Solution: False

Problem: # TODO verify GI50 < 4 µM strictly for this molecule: Cc1ccc(C/C(=N\O)C(=O)NCCSSCCNC(=O)/C(Cc2ccc(C)cc2)=N/O)cc1
Solution: False

Problem: Please let me know if O=C(NCCSSCCNC(=O)/C(Cc1ccc(O)cc1)=N/O)/C(Cc1ccc(O)cc1)=N/O shows GI50 below 4 µM.
Solution: False

Problem: Hello, is GI50 of the following molecule strictly smaller than 4 µM? O=C(NCCSSCCNC(=O)/C(Cc1cccc(C(F)(F)F)c1)=N/O)/C(Cc1cccc(C(F)(F)F)c1)=N/O
Solution: True

Problem: hey, is GI50 for CO/N=C(\Cc1cccc(Cl)c1)C(=O)NCCSSCCNC(=O)/C(Cc1cccc(Cl)c1)=N/OC lower than 4 µM or not?
Solution: False

Problem: Please indicate whether the reported GI50 of O=C(NCCSSCCNC(=O)/C(Cc1cccc(Cl)c1)=N/O)/C(Cc1cccc(Cl)c1)=N/O is strictly below 4 µM.
Solution: True

Problem: GI50 strictly < 4 µM for this molecule? O=C(NCCSSCCNC(=O)/C(Cc1ccc(O)c(Br)c1)=N/O)/C(Cc1ccc(O)c(Br)c1)=N/O
Solution: True

Problem: Below 4 µM on GI50? Entry COc1ccc(C/C(=N\O)C(=O)NCCSSCCNC(=O)/C(Cc2ccc(OC)c(O)c2)=N/O)cc1O
Solution: True

Problem: Please determine if COc1ccc(C/C(=N\O)C(=O)NCCSSCCNC(=O)/C(Cc2ccc(OC)cc2)=N/O)cc1 is below 4 µM in terms of GI50.
Solution: True

Problem: Consider the molecule CO/N=C(\Cc1ccc(Cl)cc1Cl)C(=O)NCCSSCCNC(=O)/C(Cc1ccc(Cl)cc1Cl)=N/OC . Is its GI50 strictly less than 4 µM?
Solution: False

Problem: Given the entry COc1cc(C/C(=N\O)C(=O)NCCSSCCNC(=O)/C(Cc2ccc(O)c(OC)c2)=N/O)ccc1O , would its reported GI50 be below 4 µM?
Solution: True

Problem: I wonder whether O=C(NCCSSCCNC(=O)/C(Cc1ccc2c(c1)OCO2)=N/O)/C(Cc1ccc2c(c1)OCO2)=N/O has GI50 below 4 µM. Can you tell?
Solution: True

----------
Provide the recorded GI50 for the entries that follow.
Tested on: PC-3
Test: Cytotoxicity against human PC3 cells assessed as reduction in cell growth inhibition after 96 hrs by MTT assay
Type: functional
Conditions: PC-3, 96 h
The answer is to be given in µM; state only the numeric part.

Entry O=C(NCCSSCCNC(=O)/C(Cc1ccc(Cl)cc1Cl)=N/O)/C(Cc1ccc(Cl)cc1Cl)=N/O , GI50 reported as 4.61

Form: molecule = O=C(NCCSSCCNC(=O)/C(Cc1ccc(O)c(Br)c1)=N/O)/C(Cc1ccc(O)c(Br)c1)=N/O ; GI50 = 3.52

Lab note: O=C(NCCSSCCNC(=O)/C(Cc1ccc(O)cc1)=N/O)/C(Cc1ccc(O)cc1)=N/O gave GI50 of 5.33

GI50 reported for this molecule CO/N=C(\Cc1cccc(Cl)c1)C(=O)NCCSSCCNC(=O)/C(Cc1cccc(Cl)c1)=N/OC : 23.1

GI50 measured on COc1ccc(C/C(=N\O)C(=O)NCCSSCCNC(=O)/C(Cc2ccc(OC)cc2)=N/O)cc1 = 5.5

Query COc1ccc(-c2cc(C(=O)NCCSSCCNC(=O)c3cc(-c4ccc(OC)cc4)[nH]n3)n[nH]2)cc1 yields GI50 of 26.6

Quick note, GI50 for COc1ccc(-c2cc(C(=O)NCCSSCCNC(=O)c3cc(-c4ccc(OC)c(Br)c4)[nH]n3)n[nH]2)cc1Br landed at 16.9

# GI50 (molecule: O=C(NCCSSCCNC(=O)c1cc(-c2ccc(O)c(Br)c2)[nH]n1)c1cc(-c2ccc(O)c(Br)c2)[nH]n1 ) is 17.1

Recorded GI50 (molecule COc1cc(C/C(=N\O)C(=O)NCCSSCCNC(=O)/C(Cc2ccc(O)c(OC)c2)=N/O)ccc1O ): 3.41

Recorded result, COc1ccc(C/C(=N\O)C(=O)NCCSSCCNC(=O)/C(Cc2ccc(OC)c(O)c2)=N/O)cc1O , GI50: 3.27

The molecule O=C(NCCSSCCNC(=O)/C(Cc1cccc(Cl)c1)=N/O)/C(Cc1cccc(Cl)c1)=N/O showed GI50 equal to 5.19

For this molecule ( O=C(NCCSSCCNC(=O)/C(Cc1cccc(C(F)(F)F)c1)=N/O)/C(Cc1cccc(C(F)(F)F)c1)=N/O ), measured GI50 is 6.78
